melting point by entry:

Worked cases, answers included:
COC(=O)c1nn(-c2cccc(C(F)(F)F)c2)c(=O)cc1OC: 124 to 125 °C
O=S(=O)(NS(=O)(=O)c1ccc(CCBr)cc1)c1ccccc1: 148 to 150 °C

Return the recorded melting point value; entry: O=C1OC(c2ccccc2)(c2ccccc2)C2CN(S(=O)(=O)c3ccccc3)CCN12 (configuration not stated) 236 to 237 °C

Return the recorded melting point value; entry: CC(C#N)CC(=O)c1cccc(Cl)c1 (configuration not stated) 72 to 75 °C

Return the recorded melting point value; entry: `CC12CC(c3ccc(N)cc3)(C1)C(=O)NC2=O` 216 °C

Return the recorded melting point value; entry: `NNC(=O)c1ccc(N2CCNC2=O)cc1` > 200 °C

---

melting point by entry:

Return the recorded melting point value; entry: CC1(C)CCSc2ccc(C(O)COc3ccc(C(=O)O)c(O)c3)cc21 (stereo not given) 166 to 167 °C

---

melting point by entry:

Worked cases, answers included:
Fc1nc(Cl)c2cc[nH]c2n1: 180 °C
O=C(Nc1ccccc1N1CCc2ccccc21)c1ccccc1F: 139 to 141 °C
CNC(=O)Nc1nnc(C(F)(F)F)s1: 192 to 194 °C
Cc1nnc(-c2ccc3ccn(-c4ccc(S(C)=O)cc4)c3c2)o1 (centres undefined): 215 to 216 °C

Return the recorded melting point value; entry: CC1OC(n2c(Br)nc3cc(Cl)c(Cl)cc32)C(O)C1O (centres undefined) 85 to 86 °C

Return the recorded melting point value; entry: `CSC(=C[N+](=O)[O-])N(C)C` 60 °C

---

melting point by entry:

Worked cases, answers included:
CC1(C)Oc2ccc(C#N)cc2C(N(C(N)=O)c2ccc3c(c2)CN(Cc2ccccc2)C3)C1O (stereo not given): 168 to 175 °C
CCCOc1ncc(C(C)=O)cc1-c1nc2c(CC)n(C3CN(C(C)C)C3)nc2c(=O)[nH]1: 163 to 164 °C
NNc1ccc(C2CCCCC2)cc1: 115 to 116 °C
COc1cccc(C(F)(F)F)c1NS(=O)(=O)c1nc2nc(O)cc(O)n2n1: 237 to 243 °C
CC(=O)OCc1ccc2oc(=O)c(C(=O)Oc3cncc(Cl)c3)cc2c1: 153 to 155 °C
CC(=O)OC1CSC(Oc2ccnc(-c3ccc(F)cc3C)c2)C(OC(C)=O)C1OC(C)=O (stereo not given): 137 °C
Cn1c(=O)sc2ccc(Cl)cc21: 106 to 108 °C
COc1ccc(C(=O)CCCCCBr)cc1Cl: 104 to 106 °C
CCOC(=O)CNC(=O)CCCCCNC(=O)c1ccc(OC)cc1: 106 to 107 °C

Pending molecule:
Return the recorded melting point value; entry: `CCn1nc(-c2ccc(F)cc2)c(-c2ccncc2)c1C(=O)N(C)Cc1ccccc1` 148 to 149 °C

---

melting point by entry:

O=C(CCCl)Nc1ccc(F)c(F)c1: 76 °C
COc1cc2ccc(COC(C)=O)cc2cc1OC: 71 to 75 °C
CC(C)(C)OC(=O)NOC(=O)OC(C)(C)C: 52 °C
O=C(NCCN1CCC(Oc2ccc(F)cc2Cl)CC1)c1ccc(-n2cccn2)nc1: 109 to 110 °C
CN1C(=O)C2=C(c3ccc(Br)cc3)OC(=O)C2=C1c1ccccc1: 215 to 216 °C

Return the recorded melting point value; entry: `O=C(O)COc1ccc2cc(-c3ccc(-c4ccccc4)n3Cc3ccccc3)ccc2c1` 171 to 172 °C

Return the recorded melting point value; entry: `O=c1n(CC(F)(F)F)c2cc(F)ccc2n1C1CCNCC1` > 280 °C

Return the recorded melting point value; entry: `CCCCCCCCCc1cc(C(=O)O)n[nH]1` 147 to 149 °C

Return the recorded melting point value; entry: `Cc1nnc(Br)n1-c1ccc(Cl)cc1C(=O)c1ccccc1` 198 to 199 °C

Return the recorded melting point value; entry: Cc1oc(-c2ccc(C(F)(F)F)cc2)nc1-c1cccc(-c2ccc(OC(Cc3ccccc3)C(=O)O)cc2)c1 (configuration not stated) 148 to 149 °C

Return the recorded melting point value; entry: COc1ccc(NC(=O)NCc2cccc3c2C(=O)N(C2CCC(=O)NC2=O)C3=O)cc1 (configuration not stated) 205 to 207 °C

Return the recorded melting point value; entry: `O=C(Oc1ccc([N+](=O)[O-])cc1)c1cnc2cc(I)ccc2n1` 228 to 230 °C

Return the recorded melting point value; entry: Cc1ccc(COC(=O)NC(CO)Cc2ccc(O)cc2)cc1 (configuration not stated) 128 to 129 °C
